Recorded values, source the Immune Epitope Database (IEDB).

// reported Kd for each item listed
- target-under-test: HLA-A*02:02
- experimental-protocol: IEDB peptide-MHC binding, purified MHC/competitive/radioactivity; filed as Kd, often an IC50 or EC50 that approximates it; bounds were set here for any values at or beyond the usual limits of such assays
- details: source organism: Vaccinia virus WR
parameter-measured: Kd

1) NILGGVLHT ≥ 77.8 µM
2) SILNNPVDT ≥ 47.1 µM
3) VIPFDDIVRT ≥ 62.7 µM

* * *

// reported Kd for each item listed
- target-under-test: HLA-A*02:03
- experimental-protocol: IEDB peptide-MHC binding, purified MHC/competitive/radioactivity; filed as Kd, often an IC50 or EC50 that approximates it; bounds were set here for any values at or beyond the usual limits of such assays
- details: source organism: Vaccinia virus WR
parameter-measured: Kd

1) ELVMDKNHAI ≥ 70.4 µM
2) ELEKCTSEI ≥ 56 µM
3) ALWDSNFFT ≥ 28.2 µM
4) WLRAKRKPAM ≥ 20.1 µM
5) SILNNPVDT ≥ 30.6 µM
6) PTIEDDKIVT ≥ 20.6 µM
7) ATCALVSDCA ≥ 23.4 µM
8) VIPFDDIVRT ≥ 50.3 µM
